# tested_on: HGF (human, UniProt P14210)
# Sequence (P14210 32-728): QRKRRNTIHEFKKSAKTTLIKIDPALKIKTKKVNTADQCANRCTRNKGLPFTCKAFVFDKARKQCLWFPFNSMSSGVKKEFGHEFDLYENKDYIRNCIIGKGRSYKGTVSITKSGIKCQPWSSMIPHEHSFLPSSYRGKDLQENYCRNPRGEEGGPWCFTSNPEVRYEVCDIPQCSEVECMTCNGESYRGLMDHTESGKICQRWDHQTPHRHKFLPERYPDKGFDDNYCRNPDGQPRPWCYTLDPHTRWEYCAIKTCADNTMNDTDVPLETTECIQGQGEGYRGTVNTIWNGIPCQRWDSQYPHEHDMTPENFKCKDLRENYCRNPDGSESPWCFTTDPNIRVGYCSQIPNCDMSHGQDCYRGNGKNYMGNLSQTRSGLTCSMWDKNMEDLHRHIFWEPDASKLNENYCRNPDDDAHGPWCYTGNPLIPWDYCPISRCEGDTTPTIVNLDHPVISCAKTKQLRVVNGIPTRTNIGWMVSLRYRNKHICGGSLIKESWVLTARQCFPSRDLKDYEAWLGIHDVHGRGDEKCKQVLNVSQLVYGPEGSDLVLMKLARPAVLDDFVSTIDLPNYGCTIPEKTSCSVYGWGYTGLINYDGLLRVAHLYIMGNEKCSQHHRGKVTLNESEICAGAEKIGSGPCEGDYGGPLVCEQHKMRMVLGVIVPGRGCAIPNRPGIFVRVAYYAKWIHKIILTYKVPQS
# assay_procedure: SPR
measurement_name: Kd (nM)
Answer format: numeric, nM implied, no suffix.

Q. For the binder shown here, DVD033 HGF arm (antibody, V domains shown, DVD-Ig inner) VH: QVQLVESGGGLVKPGGSLRLSCAASGFTFSDYYMSWIRQAPGKGLEWVSYISSSGSTIYYADSVKGRFTISRDNAKNSLYLQMNSLRAEDTAVYYCARDEYNSGWYVLFDYWGQGTLVTVSS VL: DIQMTQSPSSVSASVGDRVTITCRASQGISSWLAWYQQKPGKAPNLLIYEASSLQSGVPSRFGGSGSGTDFTLTISSLQPEDFATYYCQQANGFPWTFGQGTKVEIKR , give the reported Kd.
A. 0.31
